Provide the recorded melting point for the entries that follow.

COMPOUND: O=c1c(OCC2CC2)cn(-c2cccc(C(F)(F)F)c2)nc1-c1ccnn1-c1ccccc1
melting point: 72 to 78 °C

Quick one: give me melting point for each item below, same order please.
1. CCOC(=O)Cc1csc2nc(C(=O)OC)cn12
2. CC1=NC(NCc2ccc(O)c(OC(F)F)c2)C(C)(Cl)C=N1 (stereo not drawn)
3. Cc1c(-c2cccnc2)n(Cc2ccc(C#N)cc2)c2ccccc12

A.
1. 152 to 154 °C
2. 167 to 168 °C
3. 127 to 129 °C

====

Field: melting point. Provide a value for each of the compounds that follow.

Below are worked cases with known answers.
COMPOUND: C#CC[C@]12CCC(=O)C=C1CC[C@@H]1[C@@H]2CC[C@]2(C)C(=O)CC[C@@H]12
EXPERIMENTAL_VALUE: 174 to 175 °C

COMPOUND: C=Cc1cc([C@@H](C)NC(=O)C=Cc2ccc(C(C)(C)C)cc2)cc(F)c1NS(C)(=O)=O
EXPERIMENTAL_VALUE: 127 to 129 °C

COMPOUND: CN(C(=O)C(F)(F)F)C1Cc2ccc(C(=O)Cn3cnc4cc(-c5ccc(Cl)cc5)sc4c3=O)cc2C1 (stereo not given)
EXPERIMENTAL_VALUE: 245 to 248 °C

COMPOUND: CCOC(=O)C(=O)c1cn(CCN2CCOCC2)c2ccccc12
EXPERIMENTAL_VALUE: 99 to 100 °C

COMPOUND: COc1cc2c(-c3ccnc(NN)c3)c(CO)c(CO)cc2cc1OC(C)C
EXPERIMENTAL_VALUE: 128 to 131 °C

COMPOUND: CN(C)c1cccc(C(=O)Nc2ccc3ccc(Cl)nc3n2)c1
EXPERIMENTAL_VALUE: 215 °C

COMPOUND: CCC(c1oc2ccccc2c(=O)c1-c1ccccc1F)n1cnc2c(N)ncnc21 (stereo not given)
EXPERIMENTAL_VALUE: 160 to 163 °C

COMPOUND: CC(=C(C#N)C(N)=O)c1ccc(Cl)cc1
EXPERIMENTAL_VALUE: 165 to 167 °C

Give one value of melting point per listed compound.
1. CC(C)(C)OC(=O)N1CCC=C(Cc2c[nH]c3ccc(F)cc23)C1
2. N#CCCCCC(=O)c1ccc(Br)cc1

A.
1: 78 to 80 °C; 2: 47 to 48 °C

Values were extracted from a melting point compilation (Tetko et al.; mined from patent text by program, amines drawn as free bases though some values may be those of a salt).
